- measured target: T1, murine CD22 protein (ACROBiosystems, SI2-M52Ha) (murine, UniProt P35329 22-708)
- T1 construct: extracellular domain; also called murine CD22-ECD; murine CD22-ECD-His
- T1 sequence (looked up): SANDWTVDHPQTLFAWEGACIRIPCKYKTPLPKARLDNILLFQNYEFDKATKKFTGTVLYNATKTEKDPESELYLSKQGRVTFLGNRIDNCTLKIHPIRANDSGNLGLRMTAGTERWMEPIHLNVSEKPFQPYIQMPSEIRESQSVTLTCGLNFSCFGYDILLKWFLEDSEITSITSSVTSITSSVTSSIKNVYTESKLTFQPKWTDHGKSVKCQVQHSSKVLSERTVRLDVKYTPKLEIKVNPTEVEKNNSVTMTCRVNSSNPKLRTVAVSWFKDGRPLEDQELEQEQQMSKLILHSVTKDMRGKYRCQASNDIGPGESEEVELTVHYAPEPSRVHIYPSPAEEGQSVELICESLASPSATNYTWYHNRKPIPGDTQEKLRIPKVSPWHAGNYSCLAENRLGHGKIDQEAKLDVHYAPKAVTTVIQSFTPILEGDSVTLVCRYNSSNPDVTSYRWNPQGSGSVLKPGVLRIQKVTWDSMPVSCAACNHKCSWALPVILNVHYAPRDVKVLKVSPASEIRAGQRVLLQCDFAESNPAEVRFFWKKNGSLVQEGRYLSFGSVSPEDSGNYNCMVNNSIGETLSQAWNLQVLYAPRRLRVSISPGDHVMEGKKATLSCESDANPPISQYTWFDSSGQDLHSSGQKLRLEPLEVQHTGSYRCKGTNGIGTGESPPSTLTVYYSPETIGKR
- measurement description: ELISA, coated murine CD22, 0.01 nM Ab

{"columns": ["binder", "OD450"],
 "data": [
  ["F1.250.16 human-murine chimeric antibody (antibody, human IgG1, kappa, V domains shown, Chimeric, human IgG1 / kappa; VL tied by name) VH: QVQLQQSGAEQVKPGASVKMSCKASGYTFTTYPIEWMKQNHGESLDWIGNIHPYNDDTEYNEKFKGKATLTVEKSSNTVFLELSRLTSDDSAVYYCVRGDYYNSRYWYFDVWGTGTTVTVSS VL: DIVMTQSQKFMSTTVGDRVSITCKAGQNVRTAVAWYQQKPGQSPKLLIYSASTRYIGVPERFTGSGSGTDFTLTITNMQSEDLADYFCQQYSSFPLTFGTGTKLELKR", "0.05 OD450"],
  ["F2.180.16 human-murine chimeric antibody (antibody, human IgG1, lambda, V domains shown, Chimeric, human IgG1 / lambda) VH: EVKLVESGGGLVLPGGSLKISCAASGFTFSDYYMYWIRQTPDKRLEWVAYISNTGYSTFYPDSVKGRFTVSRDNAKNTLYLQMSRLQSEDTAMYYCARHGILYAMDYWGQGTSVTVSS VL: QPVLTQSSSASFSLGASAKLTCTLSSQYSTYTIGWYQQQPLKPPKYVMELKHDGSRHTGDGIPDRFSGSSSGADRYLSISNIQPEDEATYICGVGDTIKEQFMYVFGGGTKVTVLG", "0.05 OD450"],
  ["F1.245.2 human-murine chimeric antibody (antibody, human IgG1, kappa, V domains shown, Chimeric, human IgG1 / kappa) VH: EVQLQQSGAELVKPGASVKLSCTGSGFNIKDYYIHWVKQRTEQGLEWMGRIDPEDGETEYAPKFQDEATITSDTSSNTAYLQLSSLTYEDTAVYYCAREAAGYFYRGSSYGYFDVWGTGTTVTVSS VL: DFQMTQTTSFLSASLGDRVTISCSASQDISNYLNWYQQKPDGTVKLLIYYTSSLHSGVPSRFSGSGSGTDYSLTISNLEPEDIATYYCQQYSMLPYTFGGGTKLEMER", "0.06 OD450"],
  ["F2.205.9 human-murine chimeric antibody (antibody, human IgG1, lambda, V domains shown, Chimeric, human IgG1 / lambda; VL tied by name) VH: QVTLKESGPGILQPSQTLSLTCSFSGFSLSTSGMGVGWIRQPSGKGLEWLAHIWWDDDEYYNPALKSRLTISKDTSKNQVFLKIANVDTADTATYYCARISIPYGYYDWFFDVWGTGTTVTVSA VL: QAVVTQESALTTSPGETVTLTCRSSTGAVTTRNYANWVQEKPDHLFTGLIGGTNNRAPGVPARFSGSLIGDKAALTITGAQTEDEAIYFCALWYSNHFIFGSGTKVTVLG", "0.05 OD450"],
  ["F2.99.1 human-murine chimeric antibody (antibody, human IgG1, lambda, V domains shown, Chimeric, human IgG1 / lambda; VL tied by name) VH: QVTLKESGPGILQPSQTLSLTCSFSGFSLSTFPMGVGWIRQPSGKGLEWLAHIWWDDDEYYNPVLKSRLTISKDTSKKQVYLRIANVDTVDTATYYCTRANWDRWYFDVWGTGTTVTVSS VL: QLVLTQSSSASFSLGASAKLTCTLSRQHSAYTIEWYQQQPLKPPKYVMEVKKDGSHSTGDGIPDRFSGSSSGADRYLSISNIQPEDEAIYICGVGDTIKEHFVFGGGTKVTVLG", "0.06 OD450"]
]}

Values were extracted from patent US20240084003A1.
